Assay: Acute dermal toxicity test
Assay type: in vivo, rabbits
Settings: rabbit, in vivo, topical or ocular; rabbits, dermal
So I've got a bunch of compounds here, and I need their LD50 values.

# LD50 (compound: S=C(SN1CCOCC1)N1CCOCC1 ) is > 10000 mg/kg

In plain terms, CN(C)C(=S)SN(C1CCCCC1)C1CCCCC1 has a documented LD50 of > 10000 mg/kg

----------
Can you tell me LC50 for the items I'm about to list?
Assay: Acute inhalation toxicity test
Format: in vivo, rats
Details: rat, in vivo, inhaled or intranasal; rats, inhalation
Supply the numeric figure in µg/mL, leaving out any unit text.

# compound S=C(SN1CCOCC1)N1CCOCC1 [Compound G] ; its LC50 = 164

According to the records, this compound CN(C)C(=S)SN(C1CCCCC1)C1CCCCC1 [Compound A] displays LC50 of 78

----------
Assay: Acute oral toxicity test
Conditions: rat, in vivo, rats
Give measured LD50 for each item. Keep answers brief.
Answer with a number only, understood to be in mg/kg.

Given item CN(C)C(=S)SN(C1CCCCC1)C1CCCCC1 , the value recorded as its LD50 is 1100

The molecule listed as S=C(SN1CCOCC1)N1CCOCC1 shows LD50 equal to 5100
